This collection of values is drawn from PubChem BioAssay (NCI).

Tested on: SK-MEL-5 melanoma
Assay: NCI tumour cell line growth inhibition, 48 h
Listing of entries alongside the reported TGI.
Value type: TGI

CC(C)c1nc2c(Cl)c3ncccc3cc2[nH]c1=O	> 100 µM
O=C(CN1C(=O)c2ccccc2C1=O)C(O)CN1C(=O)c2ccccc2C1=O (stereo not drawn)	> 100 µM
Oc1c(N=Nc2ccccc2)c2ccccc2c2ccc3ccccc3c12	> 100 µM
COC1=CC(=O)[C@]2(C)[C@H](C1=O)C(C)[C@H]2c1ccccc1 (stereo partly drawn)	> 100 µM
OC(C/C(=N\N=C(/CC(O)(C(F)(F)F)C(F)(F)F)c1ccccc1)c1ccccc1)(C(F)(F)F)C(F)(F)F	> 10 µM
Clc1ccc(SCCCCCCCCCCSc2ccc(Cl)cc2)cc1	> 69.3 µM
CC1=Nn2c(nnc2-c2ccc(N)cc2)NC(C)(C)C1	> 100 µM
COc1cc(/C=C/C(=O)c2c(C)n([O-])c3ccc(Cl)cc3[n+]2=O)cc(OC)c1OC	> 100 µM
CC[N+]1(C)CCC(O)(/C=C/c2ccc(Cl)cc2)C(C(=O)/C=C/c2ccc(Cl)cc2)C1 (stereo not drawn)	> 45.8 µM
CCN(CC)c1cccc2c1C1(O)CCC3(CC21)OCCCCO3 (stereo not drawn)	> 100 µM
O=S1c2ccccc2SCSc2ccccc21	> 100 µM
O=C(NCP(=O)(O)O)c1cccnc1	> 100 µM
COc1cc(-c2oc3c(OC)c(O)c(OC)c(O)c3c(=O)c2OC)ccc1O	> 100 µM
O=C1CCc2cc3c(cc21)CC1(Cc2cc4c(cc2C1)CCCC4)C3	> 100 µM
CN1CCn2c(c(Sc3ccc(C(=O)NO)cc3)c3ccccc32)C1=O	3.15 µM
O=Cc1ccc(O)c2ncccc12	9.45 µM
C/C=C/C=C\C1OC(O)([C@H](CC)C(=O)NC/C=C/C=C(\C)[C@H](OC)C(C)C2OC(\C=C/C=C/C=C(\C)C(=O)c3c(O)ccn(C)c3=O)[C@H](O)[C@@H]2O)C(O)C(O)C1(C)C (stereo partly drawn)	> 100 µM
CCOc1ccccc1NC(=O)C1=C(C)NC(C)=C(C(=O)Nc2ccccc2OCC)C1c1ccc(NC(C)=O)cc1	> 100 µM
O=C(NCCN1CCCC1)c1cn2c(ccc3sc4ccccc4c(=O)c32)n1	31.2 µM
CN(C)c1ccc(O)c2c1C[C@H]1C[C@H]3[C@H](N(C)C)C(=O)C(C(N)=O)=C(O)[C@@]3(O)C(=O)C1=C2O	14.7 µM
CC1OC(OC2C(O[C@@H]3C[C@@H]4CC[C@@H]5[C@H](CC[C@]6(C)C7C(C[C@@H]56)O[C@]5(CC[C@@H](C)CO5)[C@H]7C)[C@@]4(C)C[C@H]3O)OC(CO)C(O)C2O)C(O)C(O)C1O (stereo partly drawn)	4.22 µM
O=C(N/C(=C\c1ccc(Oc2ccc(Cl)c(Cl)c2)cc1)c1nc2ccccc2[nH]1)c1ccccc1	30.4 µM
O=C(OC(/C=C/c1ccccc1)P1(=O)N(Cc2ccccc2)[C@@H]2CCCC[C@H]2N1Cc1ccccc1)c1ccccc1 (stereo partly drawn)	11.4 µM
CCOC(=O)C(=CNC(=S)Nc1c(CC)cccc1CC)C(=O)OCC	> 100 µM
O=C(/C=C/c1ccc(C(F)(F)F)cc1)c1ccc(Nc2nc(NCCO)nc(N3CCOCC3)n2)cc1	10.2 µM
O=C(NCC(C(=O)OCc1ccccc1)C(=O)OCc1ccccc1)OCc1ccccc1	> 100 µM
O=C(n1c(=O)n(-c2ccc(Cl)cc2)c(=O)n1C(=O)C(Cl)(Cl)Cl)C(Cl)(Cl)Cl	> 100 µM
Clc1ccc(-c2nnc(C34CC5CC(CC(C5)C3)C4)o2)cc1	> 100 µM
Nc1ccccc1OCc1cc(=O)c(OCc2ccccc2)co1	> 100 µM
COc1cc(C(=O)CC2(O)C(=O)Nc3c(Cl)cc(Cl)cc32)ccc1O (stereo not drawn)	> 100 µM
CS/C(c1ccccc1)=[N+](/C)[O-]	> 100 µM
NC(CCSC(F)F)C(=O)O (stereo not drawn)	> 100 µM
Cc1cccc2c1C/C(=C1\CCc3c(C)cccc31)C2=O	> 100 µM
COC(=O)/C(=C\c1cn(C(C)=O)c2ccccc12)P(=O)(OC)OC	26.5 µM
CSC(=S)OC1C(CO[Si](C)(C)C(C)(C)C)OC2OC(C)(C)OC21 (stereo not drawn)	30.4 µM
COC(=O)CCC(C)C1CCC2C3CCC4CC5CCC4(C)C3(O5)C(Br)C(Br)C12C (stereo not drawn)	> 100 µM
O=C(CCCCCCC(=O)Nc1ccc2c(c1)/C(=C/c1ccc[nH]1)C(=O)N2)NO	1.41 µM
c1ccc2c3c([nH]c2c1)C1(CCCCC1)c1c([nH]c2ccccc12)C31CCCCC1	85.2 µM
